System: SK-LMS-1
protocol.text: relative viability vs DMSO control (72 h) (fraction); higher = more viable cells
assay.conditions: 3.333 µM
property.label: relative viability

mol_smiles=CC[C@@H]1CN(C(=O)NCC(F)(F)F)C[C@@H]1c1cnc2cnc3[nH]ccc3n12 reading=0.979
mol_smiles=COCCNc1cc(NC(=O)N2CCCc3cc(CN4CCN(C)CC4=O)c(C=O)nc32)ncc1C#N reading=0.883
mol_smiles=Clc1ccc(Nc2nnc(Cc3ccncc3)c3ccccc23)cc1 reading=0.938
mol_smiles=Cn1ncnc1[C@H]1c2n[nH]c(=O)c3cc(F)cc(c23)N[C@@H]1c1ccc(F)cc1 reading=0.795
mol_smiles=COc1cc(OC)c(/C=C/S(=O)(=O)Cc2ccc(OC)c(NCC(=O)O)c2)c(OC)c1 reading=0.355
mol_smiles=O=S(=O)(c1cccc2cnccc12)N1CCCNCC1 reading=1.01
mol_smiles=O=C(Nc1ccc(OC(F)(F)Cl)cc1)c1cnc(N2CC[C@@H](O)C2)c(-c2cc[nH]n2)c1 reading=0.773
mol_smiles=COC(=O)N[C@@H](C)CNc1nccc(-c2cn(C(C)C)nc2-c2cc(Cl)cc(NS(C)(=O)=O)c2F)n1 reading=0.49
